Answer each item with its documented % Cell Death.
Assay: MMV: MTT Cytotoxicity Assay Day 7 pi of Assay #11 (NO washout), U87-CD4-CXCR4 cells, % cell death @ 5mM compound
Assay type: toxicity, cell-based
Settings: human, u87-cd4-cxcr4, 5000 µM
One number for each entry.

| COMPOUND | % Cell Death |
| --- | --- |
| CCOc1cc2c(cc1OCC)C(c1cc(Cl)ccc1O)NCC2 (stereo not given) | 21 |
| COCCNC(=O)c1ccc(OC2CCN(Cc3ccc(F)c(F)c3)CC2)c(Cl)c1 | -22 |
| O=C(NCc1ccco1)C1CCN(S(=O)(=O)c2ccc(Cl)cc2)CC1 | 23 |

Provide reported % Cell Death for each item, in the same order as listed.
1. COc1ccc(Nc2nc(N/N=C/c3ccc(O)cc3)nc(Nc3ccc([N+](=O)[O-])cc3)n2)cc1
2. Oc1ccc2ccccc2c1CNc1nc2ccccc2[nH]1

0
42
